Molecular target: N2 neuraminidase from A/Leningrad/134/17/57 (Influenza A virus A/Leningrad/134/17/57, UniProt Q67214 1-469)
Sequence (Q67214 whole entry): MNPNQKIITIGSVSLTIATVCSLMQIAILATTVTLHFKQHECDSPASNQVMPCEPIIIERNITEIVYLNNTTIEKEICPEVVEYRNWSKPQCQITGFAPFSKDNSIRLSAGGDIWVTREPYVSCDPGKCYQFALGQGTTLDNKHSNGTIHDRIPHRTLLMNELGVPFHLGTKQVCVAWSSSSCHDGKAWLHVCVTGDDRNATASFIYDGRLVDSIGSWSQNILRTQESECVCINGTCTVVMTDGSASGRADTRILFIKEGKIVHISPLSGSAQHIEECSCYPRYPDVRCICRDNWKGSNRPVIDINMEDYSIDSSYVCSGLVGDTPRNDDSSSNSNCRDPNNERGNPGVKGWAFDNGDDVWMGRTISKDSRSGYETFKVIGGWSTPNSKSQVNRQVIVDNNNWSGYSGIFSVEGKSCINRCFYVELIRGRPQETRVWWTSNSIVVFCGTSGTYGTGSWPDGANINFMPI
Assay: flow cytometry, NA on cells
RESULT TYPE: binding result

INSERT INTO measurements (binder, observed_result) VALUES
  ('FNI9-v8.1 (antibody, V domains shown) VH: QVHLVQSGAEVKEPGSSVTVSCKASGGTFNNQAISWVRQAPGQGLEWMGGIFPISGTPTSAQRFQGRVTFTADESTTTVYMDLSSLRSDDTAVYYCARAGSDYFNRDLGWENYYFASWGQGTLVTVSS VL: EIVMTQSPATLSLSSGERATLSCRASRSVSSNLAWYQQKPGQAPRLLIYDASTRATGFSARFAGSGSGTEFTLTISSLQSEDSAIYYCQQYNNWPPWTFGQGTKVEIK', 'binds'),
  ('v12.7 (antibody, V domains shown) VH: QVHLVQSGAEVKEPGSSVTVSCKASGGSFNNQAISWVRQAPGQGLEWMGGIFPISGTANYAQRFQGRVTITADESTTTVYMDLSSLRSDDTAVYYCARAGSDYFNRDLGWENYYFASWGQGTLVTVSS VL: EIVMTQSPATLSLSSGERATLSCRASRSVSSNLAWYQQKPGQAPRLLIYDASTRATGFSARFAGSGSGTEFTLTISSLQSEDSAIYYCQQYNIWPPWTFGQGTKVEIK', 'binds'),
  ('v12.1 (antibody, V domains shown) VH: QVHLVQSGAEVKEPGSSVTVSCKASGGSFNNQAISWVRQAPGQGLEWMGGIFPISGTANYAQRFQGRVTITADESTTTVYMDLSSLRSDDTAVYYCARAGSDYFNRDLGWENYYFASWGQGTLVTVSS VL: EIVMTQSPATLSLSSGERATLSCRASRSVSSNLAWYQQKPGQAPRLLIYDASTRATGFSARFAGSGSGTEFTLTISSLQSEDSAIYYCQQYNNWPPWTFGQGTKVEIK', 'binds');
